system: SARS-CoV2病毒的囊膜蛋白SPIKE (SARS-CoV2, UniProt P0DTC2 14-1273)
assay: cell-based or functional assay
endpoint: EC50(nM), 阻断假病毒感染 (GFP阳性细胞)
Please give a number only; it is taken to be in nM.

In: Fill in reported EC50(nM), 阻断假病毒感染 (GFP阳性细胞) for this entry: DK2 (antibody, V domains shown) VH: QVQLQQPGAELVKPGASVKMSCKASGYTFISYSMHWVKQTPGQGLEWIGAIYPGNGDTSYTQKFKGKATLTADKSSTTAYMQLSSLTSEDSAVYYCARDHGNYVLDYWGQGTTLTVSS VL: DIVMTQSHKFMSTSVGDRVSITCKASQDVGTAVAWYQQKPGQSPKLLIYWASTRHTGVPDRFTGSGSGTDFTLTISNVQSEDLADYFCQQYSSYPWTFGGGTKLEIK
Out: 0.083

In: Find the measured EC50(nM), 阻断假病毒感染 (GFP阳性细胞) of DK10 (antibody, V domains shown) VH: QVQLQQPGAELVKPGASVKMSCKASGYTFTSYSMHWVKQTPGQGLEWIGAIYPGNGDTSYTQKFKGKATLTADKSSSTAYMQLNSLTSEDSAVYYCARDYHYDGYYVTLDYWGQGTTLTVSS VL: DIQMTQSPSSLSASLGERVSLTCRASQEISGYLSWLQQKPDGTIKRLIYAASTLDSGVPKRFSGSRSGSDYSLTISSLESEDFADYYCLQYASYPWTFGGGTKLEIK and report it.
Out: 1.63

In: Give the value of EC50(nM), 阻断假病毒感染 (GFP阳性细胞) reported for the following: DK5 (antibody, V domains shown) VH: QVQLQQPGAELVKPGASVKMSCKASGYTFTSYSMHWVKQTPGQGLEWIGAIYPGNGDTSYNQKFKGKATLTADKSSSTAYMQLSSLTSEDSAVYYCARDYHYDGYYVTLDYWGQGTTLTVSS VL: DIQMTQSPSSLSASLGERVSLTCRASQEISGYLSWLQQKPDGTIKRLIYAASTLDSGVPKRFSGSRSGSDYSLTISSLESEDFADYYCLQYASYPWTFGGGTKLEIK
Out: 0.1

In: Name the recorded EC50(nM), 阻断假病毒感染 (GFP阳性细胞) of the item DK15 (antibody, V domains shown) VH: QVQLQQPGAEFVMPGASVKMSCKASGYTFTDYWMHWVKQRPGQGLEWIGAIDTSDTYTRYNQKFKDKATLTVDESSSTAYMQLSSLTSEDSAVYYCARFLYYYGNPTFDYWGQGTTLTVSS VL: DVQITQSPSYLAASPGETITINCRASKSISKYLAWYQEKPGKTNKLLIYSGSTLQSGIPSRFSGSGSGTDFTLTISSLEPEDFAMYYCQQHNEYPLTFGAGTKLELK in your answer.
Out: 1.27

In: Answer with reported EC50(nM), 阻断假病毒感染 (GFP阳性细胞) of DK11 (antibody, V domains shown) VH: EVQLQQSGPELVKPGASVKISCKASGYSFTGYFMNWVKQSHGKSLEWIGRINPYNGDTFYNQKFKGKATLTVDKSSSTAHMELLSLTSEDSAVYYCGRGYLDYWGQGTTLTVSS VL: DIVMTQSHKFMSTSVGDRVSITCKASQDVSTAVAWYQQKPGQSPKLLIFSASYRYTGVPDRFTGSGSGTDFTFTISSVQAEDLAVYYCQEHYSNPYTFGGGTKLEIK
Out: 0.34

In: Note down EC50(nM), 阻断假病毒感染 (GFP阳性细胞) recorded for DK14 (antibody, V domains shown) VH: QVQLQQPGAELVKPGASVKLSCKASGYTFISYWMHWVKQRPGQGLEWIGEIDPSDSYTNSNQKFKGKATLTVDKSSSTAYMQLSSLTSEDSAVYYCARSELWAMDYWGQGTSVTVSS VL: DIVMTQAAFSNPVTLGTSASISCRSSKSLLHSHGITYLYWYLQKPGQSPQLLIYQMSNLASGVPDRFSSSGSGTDFTLRISRVEAEDVGVYYCAQNLELPWTFGGGTKLEIR
Out: 0.41

In: Return EC50(nM), 阻断假病毒感染 (GFP阳性细胞) for the following binder: DK6 (antibody, V domains shown) VH: QVQLQQPGTELVKPGASVKMSCKASGYTFTSYSIHWVKQTPGQGLEWIGAIYPGNGDTSYNQKFKGKATLTADKSSSTAYMQLSSLTSEDSAVYYCARDYHYDGYYVTLDYWGQGTTLTVSS VL: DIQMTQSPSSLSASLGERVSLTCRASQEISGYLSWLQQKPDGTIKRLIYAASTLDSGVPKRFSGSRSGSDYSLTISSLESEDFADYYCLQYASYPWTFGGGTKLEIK
Out: 0.47

In: Determine its reported EC50(nM), 阻断假病毒感染 (GFP阳性细胞): DK7 (antibody, V domains shown) VH: QVQLQQPGAELVKPGASVKMSCKASGYTFTSYSMHWVKQTPGQGLEWIGAIYPGNGDTSYNQKFKGKATLTADKSSSTAYMQLSSLTSEDSAVYYCARDYHYDGYYVTLDYWGQGTTLTVSS VL: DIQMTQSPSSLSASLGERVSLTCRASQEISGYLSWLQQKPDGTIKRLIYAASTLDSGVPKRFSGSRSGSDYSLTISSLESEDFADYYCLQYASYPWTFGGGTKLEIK
Out: 0.47
